tested on: C. parvum; test: In vitro anti-Cryptosporidium activity in infected HCT-8 cells (immunofluorescence assay); assay type: cell-based, Cryptosporidium parvum; conditions: Cryptosporidium parvum, HCT-8, read-out: Anti-C. parvum EC50, 0 h PI
Exercise: for every item that follows, state its recorded EC50.
Answer with a number only, understood to be in µM.

The measured EC50 associated with N#C/C(=C\c1cc(O)c(O)c(O)c1)C(N)=O reads 10.9

The measured EC50 associated with CCOc1ccc(/C=C2\CCc3ccccc3C2=O)cc1 reads 17.6

The measured EC50 associated with COc1cccc(/C=C2\CCc3ccccc3C2=O)c1 reads 33.8

The measured EC50 associated with CN(C)c1ccc(/C=C/C(=O)c2cc(Cl)ccc2O)cc1 reads 23.8

The measured EC50 associated with c1ccc(-c2nnc(-c3ccccn3)[nH]2)nc1 reads 86

The measured EC50 associated with Cc1cc2c(c(C#N)c1C)NC=NC2C (stereo not drawn) reads 10.3

* * *

Target: recombinant CpPyK (rCpPyK) protein (Cryptosporidium parvum, UniProt Q5CSM7)
Sequence (Q5CSM7 entry or part of it): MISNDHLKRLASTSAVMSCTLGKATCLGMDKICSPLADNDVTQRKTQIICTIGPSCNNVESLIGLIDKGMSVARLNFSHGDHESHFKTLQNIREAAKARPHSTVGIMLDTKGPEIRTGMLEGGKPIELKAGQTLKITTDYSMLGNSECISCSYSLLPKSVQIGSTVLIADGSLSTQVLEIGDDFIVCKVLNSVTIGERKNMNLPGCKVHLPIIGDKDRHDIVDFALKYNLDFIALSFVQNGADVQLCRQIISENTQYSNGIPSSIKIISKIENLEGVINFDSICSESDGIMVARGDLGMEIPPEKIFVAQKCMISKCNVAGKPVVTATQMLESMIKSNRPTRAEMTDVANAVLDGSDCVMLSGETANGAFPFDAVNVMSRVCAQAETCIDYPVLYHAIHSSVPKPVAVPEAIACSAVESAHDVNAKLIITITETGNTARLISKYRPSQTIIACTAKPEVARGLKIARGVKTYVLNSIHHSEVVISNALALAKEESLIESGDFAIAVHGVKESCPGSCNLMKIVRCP
Assay: rCpPyK enzymatic activity inhibition assay (ATP detection, Cell Titer-Glo luminescence)
Assay type: biochemical
Settings: 6 ng/μl rCpPyK, 3 h at room temperature; read-out: Enzyme inhibition IC50
Protocol: The in vitro enzymatic activity of the rCpPyK protein was determined by quantitating the amount of ATP produced by the transfer of a phosphate group from phosphoenolpyruvate to adenosine diphosphate (ADP) in the presence of varying concentrations of the recombinant protein (Figure 1A). […] The ATP generated was detected in a reaction volume of 50 μl in white opaque-walled 96 well plates by the luciferase-based Cell Titer-Glo 2.0 reagent (Promega) following the manufacturer’s instructions. […]
readout label: pIC50
// scale note: pIC50 = -log10(conc_M); give the bare number

The measured pIC50 associated with N#C/C(=C\c1cc(O)c(O)c(O)c1)C(N)=O reads 4.01

The measured pIC50 associated with Cc1cc2c(c(C#N)c1C)NC=NC2C (stereo not shown) reads 3.62

The measured pIC50 associated with CCOc1ccc(/C=C2\CCc3ccccc3C2=O)cc1 reads 3.91

The measured pIC50 associated with COc1cccc(/C=C2\CCc3ccccc3C2=O)c1 reads 3.93

* * *

target: recombinant CpPyK (rCpPyK) protein (Cryptosporidium parvum, UniProt Q5CSM7); assay: rCpPyK enzymatic activity inhibition assay (ATP detection, Cell Titer-Glo luminescence); format: biochemical
Exercise: for every item that follows, state its recorded pIC50.
// scale note: pIC50 = -log10(conc_M); give the bare number

The measured pIC50 associated with c1ccc(-c2nnc(-c3ccccn3)[nH]2)nc1 reads 3.63

The measured pIC50 associated with CN(C)c1ccc(/C=C/C(=O)c2cc(Cl)ccc2O)cc1 reads 3.81

* * *

test: In vitro compound cytotoxicity assay (WST-1); type: cell-based; settings: human, uninfected HCT-8 cells
readout label: CC50 at 24 h (µM)
Answer with a number only, understood to be in µM.

The measured CC50 at 24 h associated with c1ccc(-c2nnc(-c3ccccn3)[nH]2)nc1 reads 432

The measured CC50 at 24 h associated with Cc1cc2c(c(C#N)c1C)NC=NC2C (stereo not drawn) reads 660

The measured CC50 at 24 h associated with N#C/C(=C\c1cc(O)c(O)c(O)c1)C(N)=O reads 750

The measured CC50 at 24 h associated with COc1cccc(/C=C2\CCc3ccccc3C2=O)c1 reads 106

The measured CC50 at 24 h associated with CN(C)c1ccc(/C=C/C(=O)c2cc(Cl)ccc2O)cc1 reads 612

The measured CC50 at 24 h associated with CCOc1ccc(/C=C2\CCc3ccccc3C2=O)cc1 reads 266
